meta.source: patent US20260085069A1

- test-details: Stability in aqueous media (FaSSIF, SGF, PBS)
- Type: physicochemical
- reported-conditions: PBS pH 7.4, 37° C., 1 h
Define the label as condition met when PBS (pH 7.4) % remaining 1 h is strictly less than 80% and as condition not met in all remaining cases.

INSERT INTO assay_data (compound, assigned_class) VALUES
  ('CC(C)OC(=O)OCOC(=O)c1ccc2c(c1)nc(OCCOCCCCNCc1cc(F)c(OC(F)(F)F)c(F)c1)c1ccncc12 [Example 14]', 'condition not met'),
  ('CC(C)C(=O)OCOC(=O)c1ccc2c(c1)nc(OCCOCCCCNCc1cc(F)c(OC(F)(F)F)c(F)c1)c1ccncc12 [Example 5]', 'condition met'),
  ('COC(=O)c1ccc2c(c1)nc(OCCOCCCCNCc1cc(F)c(OC(F)(F)F)c(F)c1)c1ccncc12 [Example 4]', 'condition met'),
  ('CCOC(=O)OCOC(=O)c1ccc2c(c1)nc(OCCOCCCCNCc1cc(F)c(OC(F)(F)F)c(F)c1)c1ccncc12 [Example 13]', 'condition not met'),
  ('CCOC(=O)c1ccc2c(c1)nc(OCCOCCCCNCc1cc(F)c(OC(F)(F)F)c(F)c1)c1ccncc12 [Example 8]', 'condition met'),
  ('CC(C)(C)C(=O)OCOC(=O)c1ccc2c(c1)nc(OCCOCCCCNCc1cc(F)c(OC(F)(F)F)c(F)c1)c1ccncc12 [Example 6]', 'condition not met');
